target: NAD(P)H dehydrogenase [quinone] 1 (Homo sapiens); assay: Evaluated for the kinetic parameter (Kcat) using recombinant DT-Diaphorase, value calculated from Lineweaver-Burke plot
Reported k cat values follow for various compounds
Numeric only. Scale: s⁻¹

For orientation, consider the following solved cases.
COCC(=O)O[C@@H]1CCn2c1nc1c2C(=O)C(C)=C(NC(C)=O)C1=O    4.84
CC(=O)N[C@@H]1CCn2c1nc1c2C(=O)C(C)=C(N2CC2)C1=O    1.47
O=C1c2nc3n(c2C(=O)c2c1nc1n2CCC1)CCC3    3.81
CC(=O)NC1=C(C)C(=O)c2c(nc3n2CC[C@H]3OC(C)=O)C1=O    3.81

Consider the additional compound presented here.
### Prompt Output reported k cat of the compound COCC(=O)O[C@H]1CCn2c1nc1c2C(=O)C(C)=C(NC(C)=O)C1=O on NAD(P)H dehydrogenase [quinone] 1 (Homo sapiens).
### Response 1.74
